test target: Dual specificity tyrosine-phosphorylation-regulated kinase 1A (Homo sapiens, UniProt Q13627)
Decide using IC50 alone. Strictly below 7 nM: 1. Equal to or above 7 nM: 0.

Ask | Could you please tell me whether IC50 recorded for `Cn1cnc2cc(/C=C3\N=C(NC4CCCCCC4)NC3=O)ccc21` is less than 7 nM?
Reply | 0

Ask | Could you please tell me whether IC50 recorded for `O=C1NC(NC23CC4CC(CC(C4)C2)C3)=N/C1=C\c1ccc2[nH]ccc2c1` is less than 7 nM?
Reply | 0

Ask | Could you please tell me whether IC50 recorded for `COc1ccc(/C=C2\N=C(Nc3ccc(N4CCN(C)CC4)cc3)NC2=O)cc1O` is less than 7 nM?
Reply | 0

Ask | Could you please tell me whether IC50 recorded for `O=C1NC(NC2CCCCCC2)=N/C1=C\c1ccc2ncoc2c1` is less than 7 nM?
Reply | 0

Ask | Could you please tell me whether IC50 recorded for `O=C1NC(NC23CC4(F)CC(F)(CC(F)(C4)C2)C3)=N/C1=C\c1ccc2ncsc2c1` is less than 7 nM?
Reply | 1
